target: Estrogen receptor (Bos taurus) (UniProt P49884); assay: Displacement of [3H]estradiol from calf ER alpha after 16 hrs relative to estradiol
Sequence (P49884 whole entry): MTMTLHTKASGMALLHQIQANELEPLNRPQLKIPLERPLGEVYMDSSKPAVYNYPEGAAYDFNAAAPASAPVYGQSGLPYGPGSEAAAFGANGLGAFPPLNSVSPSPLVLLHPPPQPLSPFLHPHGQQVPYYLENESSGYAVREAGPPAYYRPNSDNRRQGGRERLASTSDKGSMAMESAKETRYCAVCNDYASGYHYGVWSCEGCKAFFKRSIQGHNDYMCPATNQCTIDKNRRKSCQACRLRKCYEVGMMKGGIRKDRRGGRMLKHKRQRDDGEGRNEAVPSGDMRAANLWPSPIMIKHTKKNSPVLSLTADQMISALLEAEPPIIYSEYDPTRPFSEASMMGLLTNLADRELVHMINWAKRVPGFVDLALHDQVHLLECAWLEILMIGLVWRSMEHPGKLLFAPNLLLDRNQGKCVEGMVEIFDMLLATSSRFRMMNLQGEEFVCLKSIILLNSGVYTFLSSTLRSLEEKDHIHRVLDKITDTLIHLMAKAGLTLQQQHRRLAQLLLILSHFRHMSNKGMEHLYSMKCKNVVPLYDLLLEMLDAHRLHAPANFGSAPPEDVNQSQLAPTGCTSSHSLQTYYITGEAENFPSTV
Please go through the items and note down their RBA.
Numbers only, in %.

{"molecule_smiles": "CCc1c(-c2ccc(O)cc2)nc(-c2ccc(O)cc2Cl)n1-c1ccc(O)cc1", "RBA (%)": 0.19}
{"molecule_smiles": "Oc1ccc(-n2cc(-c3ccc(O)cc3Cl)nc2-c2ccc(O)cc2Cl)cc1", "RBA (%)": 0.09}
{"molecule_smiles": "Cc1c(-c2ccc(O)cc2Cl)nc(-c2ccc(O)cc2Cl)n1-c1ccc(O)cc1", "RBA (%)": 0.11}

Shifting focus to the compound that follows.
# RBA lookup, item CCc1c(-c2ccc(O)cc2)nc(-c2ccc(O)cc2)n1-c1ccc(O)cc1
0.11
